- Test system: HT-29
- assayExplanation: Antiproliferative activity against human HT-29 cells assessed as cellular DNA content after 72 hrs by CyQUANT NF fluorescence assay relative to control
- Assay type: functional
Efficacy values for the molecules below.
// return numeric value only (unit: %, not printed)

The following molecules have reported results that may help.
Please list Efficacy recorded for the molecule COc1cc(CCc2ccccc2)c(C(=O)O)c(O)c1C/C=C(\C)CCC=C(C)C
98

Please list Efficacy recorded for the molecule COc1cc([C@@H]2c3cc4c(cc3[C@@H](O[C@@H]3O[C@@H]5CO[C@@H](C)O[C@H]5[C@H](O)[C@H]3O)[C@H]3COC(=O)[C@H]23)OCO4)cc(OC)c1O [ETOPOSIDE]
97

Please list Efficacy recorded for the molecule O=c1[nH]cc(F)c(=O)[nH]1
68

Please list Efficacy recorded for the molecule COc1c(CC=C(C)C)c(O)c(C(=O)O)c(CCc2ccccc2)c1CC=C(C)C
95

Lab note: next molecule to report on.
Please list Efficacy recorded for the molecule CCc1c2c(nc3ccc(OC(=O)N4CCC(N5CCCCC5)CC4)cc13)-c1cc3c(c(=O)n1C2)COC(=O)[C@]3(O)CC
71

* * *

- assayExplanation: Dissociation constant, pKa of the compound by UV metric method
- Format: physicochemical
measuredMetric: pKa
Number, no unit, nothing else.

Please list pKa recorded for the molecule COc1c(CC=C(C)C)c(O)c(C(=O)O)c(CCc2ccccc2)c1CC=C(C)C
3.5

* * *

- targetOrTestSystem: Peroxisome proliferator-activated receptor gamma (Homo sapiens, UniProt P37231)
- Sequence (P37231 whole entry): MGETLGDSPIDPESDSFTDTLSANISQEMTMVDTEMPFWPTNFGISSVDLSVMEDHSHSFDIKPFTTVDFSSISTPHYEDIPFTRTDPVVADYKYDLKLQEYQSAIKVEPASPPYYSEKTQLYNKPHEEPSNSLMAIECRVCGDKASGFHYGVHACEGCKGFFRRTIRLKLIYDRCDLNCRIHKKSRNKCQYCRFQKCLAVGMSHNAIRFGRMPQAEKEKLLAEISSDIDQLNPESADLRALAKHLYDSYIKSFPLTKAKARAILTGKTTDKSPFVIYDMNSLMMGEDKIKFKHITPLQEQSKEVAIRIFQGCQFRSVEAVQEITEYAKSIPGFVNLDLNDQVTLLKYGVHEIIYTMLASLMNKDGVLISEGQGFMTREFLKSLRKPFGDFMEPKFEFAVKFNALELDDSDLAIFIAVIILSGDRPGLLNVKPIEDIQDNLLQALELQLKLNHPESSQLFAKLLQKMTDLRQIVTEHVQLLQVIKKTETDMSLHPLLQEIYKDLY
- assayExplanation: Competitive binding affinity to PPARgamma (unknown origin) by TR-FRET assay
measuredMetric: Ki (nM)
// return numeric value only (unit: nM, not printed)

Please list Ki recorded for the molecule COc1c(CC=C(C)C)c(O)c(C(=O)O)c(CCc2ccccc2)c1CC=C(C)C
700
